Target: GCN2 (Homo sapiens (Human), UniProt Q9P2K8)
Sequence (Q9P2K8 whole entry, species assumed): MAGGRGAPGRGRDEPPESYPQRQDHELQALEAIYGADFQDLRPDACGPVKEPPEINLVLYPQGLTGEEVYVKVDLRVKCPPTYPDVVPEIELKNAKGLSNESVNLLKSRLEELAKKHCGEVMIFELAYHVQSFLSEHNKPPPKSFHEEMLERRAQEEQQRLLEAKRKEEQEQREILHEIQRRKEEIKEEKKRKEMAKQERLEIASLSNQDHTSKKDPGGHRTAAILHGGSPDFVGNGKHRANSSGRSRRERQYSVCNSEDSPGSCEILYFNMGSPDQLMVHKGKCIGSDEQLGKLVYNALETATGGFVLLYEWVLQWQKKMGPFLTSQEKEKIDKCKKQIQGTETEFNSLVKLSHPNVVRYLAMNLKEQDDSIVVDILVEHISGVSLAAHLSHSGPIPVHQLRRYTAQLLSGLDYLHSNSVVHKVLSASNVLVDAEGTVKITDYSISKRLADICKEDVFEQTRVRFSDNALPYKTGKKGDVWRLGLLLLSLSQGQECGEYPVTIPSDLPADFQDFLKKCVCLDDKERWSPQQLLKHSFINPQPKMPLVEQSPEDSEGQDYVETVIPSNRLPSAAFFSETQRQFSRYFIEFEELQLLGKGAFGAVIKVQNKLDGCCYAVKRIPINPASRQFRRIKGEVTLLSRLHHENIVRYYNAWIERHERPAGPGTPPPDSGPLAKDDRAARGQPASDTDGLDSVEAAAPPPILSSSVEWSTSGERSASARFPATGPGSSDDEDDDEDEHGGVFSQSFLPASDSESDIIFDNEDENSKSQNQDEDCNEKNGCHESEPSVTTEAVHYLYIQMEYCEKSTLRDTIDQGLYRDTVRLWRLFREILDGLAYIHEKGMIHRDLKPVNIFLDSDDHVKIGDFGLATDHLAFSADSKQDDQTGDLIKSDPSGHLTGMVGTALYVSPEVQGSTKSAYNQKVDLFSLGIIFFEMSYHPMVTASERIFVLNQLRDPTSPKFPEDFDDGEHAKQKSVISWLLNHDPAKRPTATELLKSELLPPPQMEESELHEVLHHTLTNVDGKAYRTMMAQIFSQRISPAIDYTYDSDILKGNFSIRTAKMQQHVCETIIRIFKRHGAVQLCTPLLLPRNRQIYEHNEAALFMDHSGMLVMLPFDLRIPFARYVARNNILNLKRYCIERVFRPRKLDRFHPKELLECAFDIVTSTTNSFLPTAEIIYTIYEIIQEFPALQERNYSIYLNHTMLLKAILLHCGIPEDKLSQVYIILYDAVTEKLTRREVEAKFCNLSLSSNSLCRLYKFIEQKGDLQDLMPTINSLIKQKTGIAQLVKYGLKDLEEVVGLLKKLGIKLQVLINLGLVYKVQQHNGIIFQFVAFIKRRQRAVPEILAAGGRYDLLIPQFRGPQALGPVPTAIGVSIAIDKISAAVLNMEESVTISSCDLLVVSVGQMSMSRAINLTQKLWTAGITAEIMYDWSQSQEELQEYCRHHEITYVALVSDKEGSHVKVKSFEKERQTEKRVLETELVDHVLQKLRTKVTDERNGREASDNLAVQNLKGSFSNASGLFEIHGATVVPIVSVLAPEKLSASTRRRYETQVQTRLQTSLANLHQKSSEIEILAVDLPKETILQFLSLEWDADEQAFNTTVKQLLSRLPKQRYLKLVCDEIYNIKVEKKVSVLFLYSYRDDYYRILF
pIC50: −log10 of the molar value.
# pIC50 >= 8 gives Fulfilled, anything below gives Not fulfilled

Previously resolved entries follow.
INSERT INTO measurements (smi, assigned_category) VALUES
  ('COCCNC[C@@H]1CC[C@@H](Nc2ncc3cc(-c4c(F)ccc(NS(=O)(=O)c5cc(Cl)cc(CO)c5Cl)c4F)ccc3n2)C1', 'Fulfilled'),
  ('COCCNC(=O)N1CC[C@@H](Nc2ncc3cc(-c4c(Cl)ccc(NS(=O)(=O)c5cc(Cl)cnc5OC)c4Cl)ccc3n2)C1', 'Not fulfilled'),
  ('CCc1cc(-c2c(F)ccc(NS(=O)(=O)c3ccccc3Cl)c2F)cc2cnc(N[C@H]3CC[C@H](N)CC3)nc12', 'Not fulfilled');

Now let's try a different one.
Check the entry "N[C@H]1CC[C@H](Nc2ncc3cc(-c4c(F)ccc(NS(=O)(=O)c5ccccc5Cl)c4F)ccc3n2)CC1" : does pIC50 equal or exceed 8?
Not fulfilled

====

Entries below carry reported pIC50 on UniProt Q9P2K8.
Notebook: values listed as pIC50 are -log10 of the concentration (mol/L).

# annotated cases, reported pIC50 shown
INSERT INTO measurements (compound, target, property, value_observed) VALUES
  ('CCc1cc(-c2c(F)cnc(NS(=O)(=O)c3cc(Cl)cnc3OC)c2F)cc2cnc(N)nc12', 'UniProt Q9P2K8', 'pIC50', 8.14),
  ('CCc1cc(-c2c(Cl)cnc(NS(=O)(=O)c3cc(Cl)cc(CO)c3Cl)c2Cl)cc2cnc(N)nc12', 'UniProt Q9P2K8', 'pIC50', 8.05),
  ('CN[C@H]1CC[C@H](Nc2ncc3cc(-c4c(F)ccc(NS(=O)(=O)c5cc(Cl)cnc5OC)c4F)ccc3n2)CC1', 'UniProt Q9P2K8', 'pIC50', 8.49),
  ('COc1ncc(Cl)cc1S(=O)(=O)Nc1ccc(F)c(-c2ccc3nc(N[C@H]4CC[C@H](N)CC4)ncc3c2)c1F', 'UniProt Q9P2K8', 'pIC50', 8.79),
  ('CCc1cc(-c2c(F)ccc(NS(=O)(=O)c3ccccc3Cl)c2F)cc2cnc(N[C@H]3CC[C@H](NC)CC3)nc12', 'UniProt Q9P2K8', 'pIC50', 7.36),
  ('COCCNC(=O)[C@H]1C[C@H](Nc2ncc3cc(-c4c(F)ccc(NS(=O)(=O)c5cc(Cl)cc(CO)c5Cl)c4F)ccc3n2)CN1', 'UniProt Q9P2K8', 'pIC50', 8.27);

Tell us which pIC50 value is on record for "COCCNC(=O)N1CC[C@@H](Nc2ncc3cc(-c4c(F)ccc(NS(=O)(=O)c5cc(Cl)cc(CO)c5Cl)c4F)ccc3n2)C1"
7.98

Using known records, supply pIC50 for "CCc1cc(-c2c(F)ccc(NS(=O)(=O)c3cc(Cl)cnc3OC)c2F)cc2cnc(N[C@H]3CC[C@H](N(C)C)CC3)nc12"
8.40

Look up and report measured pIC50 for this entry: "NC(=O)[C@@H]1CC[C@@H](Nc2ncc3cc(-c4c(F)ccc(NS(=O)(=O)c5cc(Cl)cc(CO)c5Cl)c4F)ccc3n2)C1"
8.67

Give recorded pIC50. "CN(C)CCNC(=O)[C@H]1CC[C@H](Nc2ncc3cc(-c4c(F)ccc(NS(=O)(=O)c5cc(Cl)cc(CO)c5Cl)c4F)ccc3n2)CC1"
8.40

Output pIC50 of COCCNC[C@@H]1CCC(Nc2ncc3cc(-c4c(Cl)ccc(NS(=O)(=O)c5cc(Cl)cnc5OC)c4Cl)ccc3n2)C1 (stereo partly shown)
7.90

Provide one value: measured pIC50 of "COCCNC(=O)N1CC[C@@H](Nc2ncc3cc(-c4c(F)ccc(NS(=O)(=O)c5cc(Cl)cnc5OC)c4F)ccc3n2)C1"
7.94

Look up pIC50 of "Nc1ncc2cc(-c3c(Cl)cnc(NS(=O)(=O)c4ccccc4Cl)c3Cl)ccc2n1" and report it.
7.71
